Sourced from patent US20260132127A1

Reported pIC50, human TRH-DE (Homo sapiens).
One number for each entry, as −log10 of the molar value.

Example results:
COMPOUND: C[C@@H]1CCN2CCC[C@H]2C(=O)N1C1CC2(C1)CN(S(=O)(=O)c1ccccc1F)C2 [Example 222]
QUANTITATIVE_READOUT: 6.35
//
COMPOUND: C[C@@H]1COc2c(cnn2CC(F)(F)F)C(=O)N1C1CC2(C1)CN(S(=O)(=O)c1ccccc1F)C2
QUANTITATIVE_READOUT: 7.70
//
COMPOUND: Cc1nc2c(cc1C#N)C(=O)N(C1CC3(C1)CN(S(=O)(=O)c1ccccc1F)C3)[C@H](C)CO2
QUANTITATIVE_READOUT: 7.74
//
COMPOUND: CCCN(C(=O)c1cccnc1OC)C1CC2(C1)CN(S(=O)(=O)c1cc(C)ccc1F)C2
QUANTITATIVE_READOUT: 7.12
//
COMPOUND: C[C@@H]1Cn2nc(Cl)cc2C(=O)N1C1CC2(C1)CN(S(=O)(=O)c1ccccc1F)C2
QUANTITATIVE_READOUT: 7.74

Return reported pIC50 values for all items listed beneath this line.
1. CC1CCc2nc(C(F)(F)F)sc2C(=O)N1C1CC2(C1)CN(S(=O)(=O)c1ccccc1F)C2 (single isomer, unassigned) [Example 353]
2. C[C@@H]1COc2nc(N3[C@@H]4COC[C@H]3C4)ncc2C(=O)N1C1CC2(C1)CN(S(=O)(=O)c1ccccc1F)C2

7.18
8.52

* * *

# TESTED_ON: human TRH-DE (Homo sapiens, UniProt Q9UKU6)
# Construct: expressed in transfected cells; host or cells: Expi 293 cells (transient expression), membrane fraction
# Sequence (Q9UKU6 1-1069): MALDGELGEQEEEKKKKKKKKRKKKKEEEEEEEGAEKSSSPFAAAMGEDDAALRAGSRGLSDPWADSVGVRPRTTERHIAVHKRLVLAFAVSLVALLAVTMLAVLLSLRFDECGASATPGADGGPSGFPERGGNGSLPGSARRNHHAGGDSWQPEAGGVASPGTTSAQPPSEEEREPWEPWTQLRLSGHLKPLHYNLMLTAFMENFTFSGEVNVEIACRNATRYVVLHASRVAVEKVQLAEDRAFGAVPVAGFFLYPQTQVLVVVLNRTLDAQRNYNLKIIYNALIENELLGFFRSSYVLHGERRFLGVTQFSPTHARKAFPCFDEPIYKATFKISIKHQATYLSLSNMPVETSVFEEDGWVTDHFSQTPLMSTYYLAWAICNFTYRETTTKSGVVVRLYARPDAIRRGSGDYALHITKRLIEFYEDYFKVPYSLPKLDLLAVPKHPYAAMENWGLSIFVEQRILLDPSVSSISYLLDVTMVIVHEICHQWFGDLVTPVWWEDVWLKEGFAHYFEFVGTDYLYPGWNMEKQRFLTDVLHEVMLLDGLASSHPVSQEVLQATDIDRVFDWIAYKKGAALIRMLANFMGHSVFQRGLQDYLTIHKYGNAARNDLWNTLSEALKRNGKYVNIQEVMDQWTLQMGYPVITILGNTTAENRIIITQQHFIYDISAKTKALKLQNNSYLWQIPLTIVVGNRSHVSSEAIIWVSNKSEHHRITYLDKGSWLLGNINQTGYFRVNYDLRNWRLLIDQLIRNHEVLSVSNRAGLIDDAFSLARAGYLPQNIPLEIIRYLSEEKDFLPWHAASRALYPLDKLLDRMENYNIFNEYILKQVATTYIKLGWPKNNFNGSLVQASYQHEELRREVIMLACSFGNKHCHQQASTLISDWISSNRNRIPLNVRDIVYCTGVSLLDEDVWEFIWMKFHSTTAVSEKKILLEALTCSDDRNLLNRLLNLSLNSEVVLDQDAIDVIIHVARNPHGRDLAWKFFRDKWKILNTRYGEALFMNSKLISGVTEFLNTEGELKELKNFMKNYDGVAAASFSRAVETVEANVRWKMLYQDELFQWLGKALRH
# TEST_SUMMARY: TRH-DE inhibition test (RapidFire MS measurement of product Cyclo (His-Pro))
# Type: biochemical
# APPLIED_CONDITIONS: membrane fraction of Expi 293 cells expressing human TRH-DE; 10 μM TRH substrate; room temperature, 2 hours; 16-point concentration test
pIC50: −log10 of the molar value.
Label scheme, based on pIC50: Low = under 7, Medium = from 7 up to 8, High = 8 and over

MOLECULE: CC1COc2nc(F)ccc2C(=O)N1C1CC2(C1)CN(S(=O)(=O)c1ccccc1F)C2 (racemic) [Example 28]
CLASS: Medium
//
MOLECULE: COc1cnc2c(n1)OC[C@@H](C)N(C1CC3(C1)CN(S(=O)(=O)c1ccccc1F)C3)C2=O [Example 166]
CLASS: High
//
MOLECULE: CCC1(O)c2ccccc2C(=O)N1C1CC2(C1)CN(S(=O)(=O)c1ccccc1)C2 (racemic) [Example 285]
CLASS: Low
//
MOLECULE: Cc1nnc2n1C[C@@H](C)N(C1CC3(C1)CN(S(=O)(=O)c1ccccc1F)C3)C2=O [Example 264]
CLASS: Low
//
MOLECULE: C[C@@H]1CCn2ncc(C3CC3)c2C(=O)N1C1CC2(C1)CN(S(=O)(=O)c1ccccc1F)C2 [Example 319]
CLASS: Medium

Band for C[C@@H]1CCn2cnc(Br)c2C(=O)N1C1CC2(C1)CN(S(=O)(=O)c1ccccc1F)C2 [Example 215] ?
Medium

Classify this molecule: C[C@@H]1CCCCN1c1cc2c(cn1)C(=O)N(C1CC3(C1)CN(S(=O)(=O)c1ccccc1F)C3)[C@H](C)CO2 [Example 151]
High

# classify by pIC50 band: CC1COc2ncc(F)cc2C(=O)N1C1CC2(C1)CN(S(=O)(=O)c1ccccc1F)C2 (racemic) [Example 26]
Medium

* * *

The following molecules each carry a recorded IC50 for human TRH-DE (Homo sapiens).
Answers are plain numbers, in nM.

MOLECULE: C[C@@H]1CNC(=O)N1C1CC2(C1)CN(S(=O)(=O)c1ccccc1F)C2
READING_UNIT: nM
IC50: 492
//
MOLECULE: COc1cc2c(cn1)C(=O)N(C1CC3(C1)CN(S(=O)(=O)c1ccccc1F)C3)[C@H](C)CO2
READING_UNIT: nM
IC50: 2
//
MOLECULE: C[C@@H]1CCn2c(C3CC3)nc(C(F)F)c2C(=O)N1C1CC2(C1)CN(S(=O)(=O)c1ccccc1F)C2
READING_UNIT: nM
IC50: 50
//
MOLECULE: C[C@@H]1CNc2cc(Cl)cnc2C(=O)N1C1CC2(C1)CN(S(=O)(=O)c1ccccc1F)C2
READING_UNIT: nM
IC50: 8
//
MOLECULE: CCC1(O)c2ccccc2C(=O)N1C1CC2(C1)CN(S(=O)(=O)c1cc(OC)ccc1F)C2 (racemic)
READING_UNIT: nM
IC50: 338

Each molecule below has a reported value. Please supply its IC50.
1. C[C@@H]1CCn2nc(C3CC3)c(F)c2C(=O)N1C1CC2(C1)CN(S(=O)(=O)c1ccccc1F)C2
2. CC1C=Cc2nc(C(F)(F)F)ccc2C(=O)N1C1CC2(C1)CN(S(=O)(=O)c1ccccc1F)C2 (stereo not shown)

[13, 60]

* * *

# TESTED_ON: human TRH-DE (Homo sapiens, UniProt Q9UKU6)
# Sequence (Q9UKU6 1-1069): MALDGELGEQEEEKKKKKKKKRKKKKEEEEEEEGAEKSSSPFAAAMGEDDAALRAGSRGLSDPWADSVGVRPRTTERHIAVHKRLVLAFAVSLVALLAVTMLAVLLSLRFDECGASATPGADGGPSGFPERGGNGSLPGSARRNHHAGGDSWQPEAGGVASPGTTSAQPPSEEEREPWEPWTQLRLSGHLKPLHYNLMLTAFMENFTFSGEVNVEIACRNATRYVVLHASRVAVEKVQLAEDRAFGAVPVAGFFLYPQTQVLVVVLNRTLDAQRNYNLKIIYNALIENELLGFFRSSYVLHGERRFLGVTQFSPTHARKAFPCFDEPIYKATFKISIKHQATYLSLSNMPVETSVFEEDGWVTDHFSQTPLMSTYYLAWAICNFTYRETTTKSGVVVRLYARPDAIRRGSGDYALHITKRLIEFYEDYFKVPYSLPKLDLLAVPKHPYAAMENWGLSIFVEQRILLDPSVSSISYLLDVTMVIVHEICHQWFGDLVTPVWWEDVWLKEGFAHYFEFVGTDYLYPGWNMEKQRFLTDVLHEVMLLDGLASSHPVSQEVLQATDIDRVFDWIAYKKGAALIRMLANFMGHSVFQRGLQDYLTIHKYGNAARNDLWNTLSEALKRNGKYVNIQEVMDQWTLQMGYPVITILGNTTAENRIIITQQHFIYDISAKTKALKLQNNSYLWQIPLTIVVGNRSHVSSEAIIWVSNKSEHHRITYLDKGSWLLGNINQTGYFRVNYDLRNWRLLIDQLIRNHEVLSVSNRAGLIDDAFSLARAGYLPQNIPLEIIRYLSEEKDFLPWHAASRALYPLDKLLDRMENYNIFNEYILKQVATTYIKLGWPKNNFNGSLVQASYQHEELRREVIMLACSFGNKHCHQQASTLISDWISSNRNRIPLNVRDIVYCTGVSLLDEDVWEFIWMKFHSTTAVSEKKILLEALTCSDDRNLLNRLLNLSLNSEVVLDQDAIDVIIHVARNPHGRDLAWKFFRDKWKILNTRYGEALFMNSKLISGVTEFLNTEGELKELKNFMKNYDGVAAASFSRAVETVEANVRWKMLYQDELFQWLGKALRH
MEASURED_ENDPOINT: pIC50
One number for each entry, as −log10 of the molar value.

Consider the reported pIC50 for these compounds:
COMPOUND: CC1CCc2nc(C3CC3)sc2C(=O)N1C1CC2(C1)CN(S(=O)(=O)c1ccccc1F)C2 (single isomer, unassigned) [Example 354]
pIC50: 8.70

COMPOUND: C[C@@H]1Cn2cnc(Br)c2C(=O)N1C1CC2(C1)CN(S(=O)(=O)c1ccccc1F)C2
pIC50: 7.51

COMPOUND: CC1(O)c2cc(C(F)(F)F)cnc2C(=O)N1C1CC2(C1)CN(S(=O)(=O)c1ccccc1F)C2 (stereo not shown)
pIC50: 7.38

Alright, here's another compound for you.
Give the reported pIC50 for this compound. Cc1c2c(nn1C)OC[C@@H](C)N(C1CC3(C1)CN(S(=O)(=O)c1ccccc1F)C3)C2=O
7.89
